Target: T1, recombinant human Fibroblast Activation Protein (FAP) with N-terminus 6x histidine tag (human, UniProt Q12884 26-760)
T1 construct: Bought protein; also called rFAP; rhFAP
T1 sequence: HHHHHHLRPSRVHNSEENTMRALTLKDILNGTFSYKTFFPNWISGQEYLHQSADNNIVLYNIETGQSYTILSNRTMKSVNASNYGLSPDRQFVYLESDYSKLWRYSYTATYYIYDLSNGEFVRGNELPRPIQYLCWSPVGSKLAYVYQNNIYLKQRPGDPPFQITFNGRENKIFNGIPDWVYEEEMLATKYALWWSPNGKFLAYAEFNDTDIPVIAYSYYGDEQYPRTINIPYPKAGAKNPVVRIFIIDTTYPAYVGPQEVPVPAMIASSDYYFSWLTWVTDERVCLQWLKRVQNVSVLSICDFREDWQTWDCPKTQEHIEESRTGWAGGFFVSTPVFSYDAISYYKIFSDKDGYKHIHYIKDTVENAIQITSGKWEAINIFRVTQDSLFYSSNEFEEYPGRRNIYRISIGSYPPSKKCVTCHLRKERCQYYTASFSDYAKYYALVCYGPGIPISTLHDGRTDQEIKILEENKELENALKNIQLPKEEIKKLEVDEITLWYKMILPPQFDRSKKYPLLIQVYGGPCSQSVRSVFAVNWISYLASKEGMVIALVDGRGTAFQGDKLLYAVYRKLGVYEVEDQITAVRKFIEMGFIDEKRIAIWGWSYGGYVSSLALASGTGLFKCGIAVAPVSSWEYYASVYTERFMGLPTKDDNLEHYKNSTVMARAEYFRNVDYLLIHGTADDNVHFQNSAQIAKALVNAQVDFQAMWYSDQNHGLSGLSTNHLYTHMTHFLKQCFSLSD
Test: capture ELISA: His-tagged rFAP captured by coated anti-His antibody (sFAP)

Binder | EC50 / pM
NI-206.59B4 (antibody, V domains shown, Recombinant complete human IgG1; Cy5-labelled in flow cytometry) VH: QVQLVQSGAEVKKPGASVKVSCKTSGYTFTDYYIHWVRQAPGQGLEWMGWINPNRGGTNYAQKFQGRVTMTRDTSIATAYMELSRLRSDDTAVYYCATASLKIAAVGTFDCWGQGTLVTVSS VL: SYELTQPPSVSVSPGQTARITCSGDALSKQYAFWFQQKPGQAPILVIYQDTKRPSGIPGRFSGSSSGTTVTLTISGAQADDEADYYCQSADSSGTYVFGTGTKVTVL | 44

Values compiled from patent US20180022822A1.
